test: Clearance in rat at 4 uM/kg, iv and 10 uM/kg, po; format: ADME, organism-based; conditions: in vivo
measuredParameter: clearance (mL/min/kg)
A number alone suffices; assume mL/min/kg.

Enquiry: Param item = CC(C)(C)CNc1nc(C#N)ncc1C(=O)NCCc1ccc(OCCn2ccnc2)cc1 ; retrieve measured clearance.
Return: 462

====

target: Procathepsin L (Homo sapiens); assay: Inhibition of human recombinant cathepsin L
Below: a set of entries, each annotated with reported pIC50.
// pIC50 here means minus log10 of the molar concentration (mol/L)

Look over these answered cases.
>>> measuredvalue("CN1CCN(c2cccc(CCNC(=O)c3cnc(C#N)nc3NCC(C)(C)C)c2)CC1")
6.09
>>> measuredvalue("CN1CCN(c2ccc(CCNC(=O)c3cnc(C#N)nc3NCC(C)(C)C)cc2)CC1")
5.41
>>> measuredvalue("CN1CCN(c2ccc(CCNC(=O)c3cnc(C#N)nc3NC3CCCCC3)cc2)CC1")
6.35

Continue with the next compound.
Enquiry: Param item = COc1ccc(CCNC(=O)c2cnc(C#N)nc2NC2CCCCC2)cc1 ; retrieve measured pIC50.
Return: 6.77

====

Below: a set of entries, each annotated with reported IC50.
molecular target: Procathepsin L (Homo sapiens, UniProt P07711); experiment: Inhibition of human recombinant cathepsin L
Sequence (P07711 whole entry): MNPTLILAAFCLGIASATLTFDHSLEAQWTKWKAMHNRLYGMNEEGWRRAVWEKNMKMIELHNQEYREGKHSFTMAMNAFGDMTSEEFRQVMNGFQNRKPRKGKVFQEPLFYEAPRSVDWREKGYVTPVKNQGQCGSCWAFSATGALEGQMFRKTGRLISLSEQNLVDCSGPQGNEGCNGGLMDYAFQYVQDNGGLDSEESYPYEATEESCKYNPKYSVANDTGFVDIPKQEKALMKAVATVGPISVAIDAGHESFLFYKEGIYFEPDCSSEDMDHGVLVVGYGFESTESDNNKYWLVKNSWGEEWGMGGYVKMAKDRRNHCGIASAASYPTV
A number alone suffices; assume nM.

>>> measuredvalue("CC(C)(C)CNc1nc(C#N)ncc1C(=O)NCCc1cccc(OCCn2ccnc2)c1")
680
>>> measuredvalue("COc1cccc(CCNC(=O)c2cnc(C#N)nc2NCC(C)(C)C)c1")
1200
>>> measuredvalue("N#Cc1ncc(C(=O)NCCc2ccccc2)c(NC2CCCCC2)n1")
1100

Enquiry: Param item = COc1cccc(CCNC(=O)c2cnc(C#N)nc2NC2CCCCC2)c1 ; retrieve measured IC50.
Return: 310

Enquiry: What about this molecule? CC(C)(C)CNc1nc(C#N)ncc1C(=O)NCCc1ccc(OCCn2ccnc2)cc1
Return: 520

====

Below: a set of entries, each annotated with reported log10 IC50.
target: Procathepsin L (Homo sapiens, UniProt P07711); assay: Inhibition of human recombinant cathepsin L
Reminder: these figures are log10 of reported IC50, in nM before transformation.

Enquiry: Param item = COc1ccc(CCNC(=O)c2cnc(C#N)nc2NCC(C)(C)C)cc1 ; retrieve measured log10 IC50.
Return: 2.53

====

Below: a set of entries, each annotated with reported pIC50.
target: Cathepsin S (Homo sapiens); assay: Inhibition of human recombinant cathepsin S
Sequence (P25774 whole entry): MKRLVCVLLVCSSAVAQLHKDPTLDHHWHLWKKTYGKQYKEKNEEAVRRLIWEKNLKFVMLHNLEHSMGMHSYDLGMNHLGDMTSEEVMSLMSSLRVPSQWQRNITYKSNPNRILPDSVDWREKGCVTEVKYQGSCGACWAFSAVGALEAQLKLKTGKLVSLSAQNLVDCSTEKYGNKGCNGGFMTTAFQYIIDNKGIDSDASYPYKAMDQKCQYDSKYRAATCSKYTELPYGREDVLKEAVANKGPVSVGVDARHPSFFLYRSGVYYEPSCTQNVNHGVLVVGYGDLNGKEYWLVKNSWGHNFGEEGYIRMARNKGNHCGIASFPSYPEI
// pIC50 here means minus log10 of the molar concentration (mol/L)

Look over these answered cases.
>>> measuredvalue("CN1CCN(c2ccc(CCNC(=O)c3cnc(C#N)nc3NCC(C)(C)C)cc2)CC1")
5.51
>>> measuredvalue("N#Cc1ncc(C(=O)NCCc2ccccc2)c(NC2CCCCC2)n1")
6.89
>>> measuredvalue("CN1CCC(Oc2ccc(CCNC(=O)c3cnc(C#N)nc3NCC(C)(C)C)cc2)CC1")
5.00
>>> measuredvalue("CN1CCN(c2ccc(CCNC(=O)c3cnc(C#N)nc3NC3CCCCC3)cc2)CC1")
6.32
>>> measuredvalue("COc1ccc(CCNC(=O)c2cnc(C#N)nc2NC2CCCCC2)cc1")
6.15

Enquiry: Param item = CC(C)(C)CNc1nc(C#N)ncc1C(=O)NCCc1ccc(OCCn2ccnc2)cc1 ; retrieve measured pIC50.
Return: 6.05

Enquiry: What about this molecule? COc1cccc(CCNC(=O)c2cnc(C#N)nc2NC2CCCCC2)c1
Return: 6.64

Enquiry: What about this molecule? COc1ccc(CCNC(=O)c2cnc(C#N)nc2NCC(C)(C)C)cc1
Return: 5.80

Enquiry: What about this molecule? N#Cc1ncc(C(=O)NCCc2ccc(N3CCCC3)cc2)c(NC2CCCCC2)n1
Return: 5.64

Enquiry: What about this molecule? CN1CCN(Cc2ccc(CCNC(=O)c3cnc(C#N)nc3NCC(C)(C)C)cc2)CC1
Return: 5.60

Enquiry: What about this molecule? COc1cccc(CCNC(=O)c2cnc(C#N)nc2NCC(C)(C)C)c1
Return: 6.05
